# test: Study VX-222-002: combination treatment with VX-222 and VX-950 in healthy subjects (PK, safety)
# measurement.setup: human, plasma, oral, T1/2, VX-222 1000 mg BID with VX-950 1125 mg BID, Day 37, healthy subjects, fed
quantity: half-life
Include the unit right after the number.

Task: Please report the recorded half-life for CC1CCC(C(=O)N(c2cc(C#CC(C)(C)C)sc2C(=O)O)C2CCC(O)CC2)CC1 (stereo not shown) .
Result: 3.5 h

----------
# test: Study VX-222-002: combination treatment with VX-222 and VX-950 in healthy subjects (PK, safety)
# measurement.setup: human, plasma, oral, 1000 mg, T1/2, VX-222 1000 mg BID alone, Day 10, healthy subjects, fed
quantity: half-life (h)
Only the number, expressed in h, is required.

Task: Please report the recorded half-life for CC1CCC(C(=O)N(c2cc(C#CC(C)(C)C)sc2C(=O)O)C2CCC(O)CC2)CC1 (stereo not shown) [VX-222] .
Result: 4

----------
# test: Study VX-222-102 Part A: VX-222 for 3 days in HCV infected subjects (PK, safety)
# Format: in vivo, human
# measurement.setup: human, in vivo; 500 mg b.i.d., Day 3, HCV infected subjects; read-out: T1/2 Arithmetic Mean (converted)
quantity: half-life (h)
Only the number, expressed in h, is required.

Task: Please report the recorded half-life for CC1CCC(C(=O)N(c2cc(C#CC(C)(C)C)sc2C(=O)O)C2CCC(O)CC2)CC1 (stereo not shown) [VX-222] .
Result: 4

----------
# test: Study VX-222-102 Part A: VX-222 for 3 days in HCV infected subjects (PK, safety)
# Type: in vivo, human
# measurement.setup: human, in vivo, 750 mg, 750 mg b.i.d., Day 1, HCV infected subjects; read-out: AUC0-12 hr Geometric Mean
# Procedure: In Part A of Study 102 subjects were randomized to VX-222 or placebo in a 6:2 (VX-222: placebo) allocation ratio to either Cohort 1, Cohort 2, Cohort 3, or Cohort 4. Subjects enrolled in Cohort 1, Cohort 2, and Cohort 3 were administered 250 mg, 500 mf, or 750 mg VX-222 or placebo twice daily (b.i.d.) for 3 days, respectively. Subjects enrolled in Cohort 4 were administered 1,500 mg VX-222 or placebo once daily (qd) for 3 days. […]
quantity: AUC(0-t) (ng·h/mL)
Only the number, expressed in ng·h/mL, is required.

Task: Please report the recorded AUC(0-t) for CC1CCC(C(=O)N(c2cc(C#CC(C)(C)C)sc2C(=O)O)C2CCC(O)CC2)CC1 (stereo not shown) .
Result: 43600

----------
# test: Study VX-222-002: combination treatment with VX-222 and VX-950 in healthy subjects (PK, safety)
# measurement.setup: human, plasma, oral, Cmax, VX-222 1000 mg BID with VX-950 1125 mg BID, Day 37, healthy subjects, fed; geometric mean (CV %)
quantity: Cmax
Include the unit right after the number.

Task: Please report the recorded Cmax for CC1CCC(C(=O)N(c2cc(C#CC(C)(C)C)sc2C(=O)O)C2CCC(O)CC2)CC1 (stereo not shown) [VX-222] .
Result: 8150 ng/mL

----------
# test: Study VX-222-002: combination treatment with VX-222 and VX-950 in healthy subjects (PK, safety)
# measurement.setup: human, plasma, oral, AUC0-12, VX-222 1000 mg BID with VX-950 1125 mg BID, Day 37, healthy subjects, fed; geometric mean (CV %)
quantity: AUC(0-t) (µg·h/mL)
Only the number, expressed in µg·h/mL, is required.

Task: Please report the recorded AUC(0-t) for CC1CCC(C(=O)N(c2cc(C#CC(C)(C)C)sc2C(=O)O)C2CCC(O)CC2)CC1 (stereo not shown) [VX-222] .
Result: 59.9
